# ASSAY_TEXT: Correlation between IgE and T cell responses per donor
# Set-up: species or system human
# STUDY_CONDITIONS: IgE and T cell
OBSERVABLE: Donors with Responses to: Both

# MOLECULE, RECORDED_NUMBER
measured = [
    ("Bla g 5: German Cockroach allergen Bla g 5 (protein, listed as Blattella germanica) MAPSYKLTYCPVKALGEPIRFLLSYGEKDFEDYRFQEGDWPNLKPSMPFGKTPVLEIDGKQTHQSVAISRYLGKQFGLSGKDDWENLEIDMIVDTISDFRAAIANYHYDADENSKQKKWDPLKKETIPYYTKKFDEVVKANGGYLAAGKLTWADFYFVAILDYLNHMAKEDLVANQPNLKALREKVLGLPAIKAWVAKRPPTDL", 7),
    ("Bla g 2: German Cockroach allergen Bla g 2 (protein, listed as Blattella germanica) MIGLKLVTVLFAVATITHAAELQRVPLYKLVHVFINTQYAGITKIGNQNFLTVFDSTSCNVVVASQECVGGACVCPNLQKYEKLKPKYISDGNVQVKFFDTGSAVGRGIEDSLTISNLTTSQQDIVLADELSQEVCILSADVVVGIAAPGCPNALKGKTVLENFVEENLIAPVFSIHHARFQDGEHFGEIIFGGSDWKYVDGEFTYVPLVGDDSWKFRLDGVKIGDTTVAPAGTQAIIDTSKAIIVGPKAYVNPINEAIGCVVEKTTTRRICKLDCSKIPSLPDVTFVINGRNFNISSQYYIQQNGNLCYSGFQPCGHSDHFFIGDFFVDHYYSEFNWENKTMGFGRSVESV", 1),
    ("Bla g 4: German Cockroach allergen Bla g 4 (protein, listed as Blattella germanica) AVLALCATDTLANEDCFRHESLVPNLDYERFRGSWIIAAGTSEALTQYKCWIDRFSYDDALVSKYTDSQGKNRTTIRGRTKFEGNKFTIDYNDKGKAFSAPYSVLATDYENYAIVEGCPAAANGHVIYVQIRFSVRRFHPKLGDKEMIQHYTLDQVNQHKKAIEEDLKHFNLKYEDLHSTCH", 0),
]
